Reference source for all entries: ChEMBL document CHEMBL4368904

Molecular target: Adenosine receptor A1 (Homo sapiens)
Test: Agonist activity at human A1A adenosine receptor expressed in HEK cell membranes incubated for 60 mins by [35S]GTPgammaS binding assay
Assay type: functional
quantity_measured: pEC50
# pEC50 = -log10(concentration in molar units)

Field request: pEC50 | item: "NC(=O)c1ncn([C@H]2[C@H](O)[C@H](O)[C@]3(CO)C[C@H]23)n1"
6.12

Field request: pEC50 | item: "OC[C@H]1O[C@@H](n2cnc3c(NC(C4CCC4)C4CCC4)ncnc32)[C@H](O)[C@@H]1O"
7.55

----------
Observed pKi, system Adenosine receptor A2a (Homo sapiens, UniProt P29274).
# pKi = -log10(concentration in molar units)

Quick check: pKi on Adenosine receptor A2a (Homo sapiens, UniProt P29274), item "O[C@@H]1[C@H](O)[C@@H](CCl)O[C@H]1n1cnc2c(N[C@H]3C[C@H]4CC[C@@H]3C4)ncnc21" ?
5.69

Quick check: pKi on Adenosine receptor A2a (Homo sapiens, UniProt P29274), item "OC[C@@]12C[C@@H]1[C@@H](n1cnc3c(N[C@H]4C[C@H]5CC[C@@H]4C5)nc(Cl)nc31)[C@H](O)[C@@H]2O" ?
5.37

Quick check: pKi on Adenosine receptor A2a (Homo sapiens, UniProt P29274), item O[C@@H]1[C@H](O)[C@@H](CCl)O[C@H]1n1cnc2c(NC3C[C@H]4CC[C@@H]3C4)ncnc21 (mixture of isomers) ?
5.87

Quick check: pKi on Adenosine receptor A2a (Homo sapiens, UniProt P29274), item "Nc1nc(Cl)nc2c1ncn2[C@H]1[C@H](O)[C@H](O)[C@]2(CCl)C[C@H]12" ?
5.76

----------
Assay: Oral bioavailability in CD1 mouse at 3 mg/kg
Type: ADME, organism-based
Details: in vivo
quantity_measured: bioavailability (%)
Report only the number, with the unit % understood.

Field request: bioavailability | item: "O[C@@H]1[C@H](O)[C@@H]2C[C@@H]2[C@H]1n1cnc2c(NC(C3CC3)C3CC3)nc(Cl)nc21"
124

----------
Can you tell me pIC50 for the items I'm about to list?
Target: Adenosine receptor A1 (Homo sapiens, UniProt P30542)
Sequence (P30542 whole entry): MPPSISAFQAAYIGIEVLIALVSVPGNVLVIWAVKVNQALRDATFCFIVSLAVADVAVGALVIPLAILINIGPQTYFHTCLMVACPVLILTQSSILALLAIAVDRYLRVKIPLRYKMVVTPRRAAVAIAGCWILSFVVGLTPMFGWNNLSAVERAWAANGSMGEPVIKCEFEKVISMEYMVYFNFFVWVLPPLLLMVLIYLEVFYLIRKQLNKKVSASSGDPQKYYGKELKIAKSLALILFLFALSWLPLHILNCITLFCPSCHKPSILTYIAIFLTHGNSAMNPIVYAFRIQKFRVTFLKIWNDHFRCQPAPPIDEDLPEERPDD
Assay: Agonist activity at human A1A adenosine receptor expressed in HEK cells assessed as inhibition of forskolin-stimulated cAMP production after 60 mins
# pIC50 = -log10(concentration in molar units)

Field request: pIC50 | item: "OC[C@H]1O[C@@H](n2cnc3c(NC(C4CCC4)C4CCC4)ncnc32)[C@H](O)[C@@H]1O"
9.85

Field request: pIC50 | item: "NC(=O)c1ncn([C@H]2[C@H](O)[C@H](O)[C@]3(CO)C[C@H]23)n1"
7.06
